GI50 listing for selected molecules.
- Test system: DMS-114
- TEST METHOD NOTES: NCI tumour cell line growth inhibition, 48 h
Active and inactive are the calls of the source. Rule as the data show it: active = GI50 up to about 1.1 µM and inactive = higher.

Consider the following illustrative entries.
MOLECULE: CN1CCN(C)C12C=c1ccccc1=CC21CC1
REPORTED: 18.2 µM (inactive)

MOLECULE: C/C(=N\O)c1sc(-n2nc(-c3ccccc3)cc2-c2ccccc2)nc1C
REPORTED: 12.4 µM (inactive)

MOLECULE: CCOCc1cc(=O)c2cc3c(cc2o1)OC(C)(C)CC3
REPORTED: 62.7 µM (inactive)

MOLECULE: Cc1cnc2ccc(C)c([N+](=O)[O-])c2c1NCCCN(C)C
REPORTED: 86.5 µM (inactive)

MOLECULE: CCCCc1c2c(nc3c1CCc1cc4c(nc1-3)-c1nc3c(c(CCCC)c1CC4)CCC/C3=C\c1ccccc1)/C(=C/c1ccccc1)CCC2
REPORTED: 47.5 µM (inactive)

Query (molecule): O=C(c1ccccc1)N1C2CCC1C(C(F)(F)F)=C2C(F)(F)F ; field requested: GI50
> 100 µM (inactive)

Query (molecule): CCOC(=O)C(=O)Nc1cc(Cl)c(Cl)cc1Cl ; field requested: GI50
> 100 µM (inactive)

Query (molecule): CC(=O)C1C(=O)C(=O)N(c2ccccc2N2C(=O)C(=O)C(C(C)=O)C2=O)C1=O (centres undefined) ; field requested: GI50
> 100 µM (inactive)

Query (molecule): CC(C)OP(=O)(OC(C)C)/C(=N/Nc1ccc([N+](=O)[O-])cc1)NCCN/C(=N\Nc1ccc([N+](=O)[O-])cc1)P(=O)(OC(C)C)OC(C)C ; field requested: GI50
3.85 µM (inactive)

###

GI50 listing for selected compounds.
- Tested on: MCF7
- TEST METHOD NOTES: NCI tumour cell line growth inhibition, 48 h
Active and inactive are the calls of the source. Rule as the data show it: active = GI50 up to about 1.1 µM and inactive = higher.

Consider the following illustrative entries.
COMPOUND: Cn1c2c(c3ccccc31)CC1c3c(c4ccccc4n3C)CC21 (stereo not given)
STUDY TARGET: MCF7
GI50: > 100 µM (inactive)
//
COMPOUND: O=C(O)CN(CC(=O)O)Cc1cc(C#Cc2ccc(C#Cc3ccccc3)cc2)cc(CN(CC(=O)O)CC(=O)O)n1
STUDY TARGET: MCF7
GI50: 16.5 µM (inactive)
//
COMPOUND: C=C(c1ccccc1)c1ccccc1-c1cc(-c2ccccc2)cc(-c2ccccc2)n1
STUDY TARGET: MCF7
GI50: > 100 µM (inactive)
//
COMPOUND: COc1ccc(NC(=O)C(=O)Cc2nc3ccc(C(=O)c4ccccc4)cc3nc2O)c([N+](=O)[O-])c1
STUDY TARGET: MCF7
GI50: 41.6 µM (inactive)
//
COMPOUND: NN=C(CC(O)(C(F)(F)Cl)C(F)(F)Cl)CC(O)(C(F)(F)Cl)C(F)(F)Cl
STUDY TARGET: MCF7
GI50: > 10 µM (inactive)
//
COMPOUND: ON=C1CCCCC(=NO)CCCC1
STUDY TARGET: MCF7
GI50: > 100 µM (inactive)
//
COMPOUND: CC(=O)/C=c1\[nH]/c(=C\C=C\c2ccccc2)c(=O)n1/C=C1\C(=O)Oc2ccccc2C1=O
STUDY TARGET: MCF7
GI50: > 100 µM (inactive)
//
COMPOUND: COc1ccc(/C=C(\C#N)c2nc3ccccc3c(=O)[nH]2)cc1
STUDY TARGET: MCF7
GI50: 34.4 µM (inactive)
//
COMPOUND: COc1cc(/C=[N+](\[O-])c2ccccc2Cl)ccc1OC(=S)S
STUDY TARGET: MCF7
GI50: 27.6 µM (inactive)

Here's the next entry for you.
Query (compound): C=CCOCn1cnc2c(=O)[nH]c(N)nc21 ; field requested: GI50
> 100 µM (inactive)
